- TGT: T1, human CC chemokine receptor 4 (CCR4) (human, UniProt P51679 1-360)
- T1 construct: whole, on cells; Always presented on cells; also called CD194; human CCR4
- T1 sequence (looked up): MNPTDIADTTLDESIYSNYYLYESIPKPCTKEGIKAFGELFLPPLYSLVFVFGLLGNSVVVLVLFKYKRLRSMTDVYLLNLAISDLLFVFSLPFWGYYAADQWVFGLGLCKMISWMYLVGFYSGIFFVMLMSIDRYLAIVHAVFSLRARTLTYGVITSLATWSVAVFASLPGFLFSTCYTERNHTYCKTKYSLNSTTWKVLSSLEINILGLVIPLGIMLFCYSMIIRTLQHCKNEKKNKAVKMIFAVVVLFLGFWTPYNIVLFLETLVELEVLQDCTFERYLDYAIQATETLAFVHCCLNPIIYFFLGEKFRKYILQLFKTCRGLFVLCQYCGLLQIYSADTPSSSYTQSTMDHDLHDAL
- PROTOCOL: calculated from the IC50; DT-40-CCR4+ cells, competitor biotinylated MDC
READOUT LABEL: Kd (pM)

macrophage-derived chemokine (MDC) (ligand, UniProt O00626 25-93, looked up, also called CCL22; biotinylated MDC) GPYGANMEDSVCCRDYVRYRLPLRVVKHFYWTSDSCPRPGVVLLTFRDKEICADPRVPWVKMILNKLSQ: 190
